Hi, quick share: literature pIC50 data for Serine/threonine-protein kinase PLK1 (Homo sapiens, UniProt P53350), several sources combined.
pIC50: −log10 of the molar value.

{"Compound": "CC[C@@H]1C(=O)N(C)c2cnc(Nc3ccc(C(=O)NC4CCN(CCCC(=O)N[C@@H](C(=O)O)C5CCCCC5)CC4)cc3OC)nc2N1C1CCCC1", "Qualifier symbol": ">", "pIC50": 7.00}
{"Compound": "COc1cc2ncn(-c3nc(-c4ccccc4)c(C(=O)Nc4ccccc4)s3)c2cc1OC", "Qualifier symbol": "=", "pIC50": 6.22}
{"Compound": "C=CCn1c(=O)c2cnc(Nc3ccc(N4CCN(CCCNc5cccc6c5C(=O)N(C5CCC(=O)N(C)C5=O)C6=O)CC4)cc3)nc2n1-c1cccc(C(C)(C)O)n1 (stereo not drawn)", "Qualifier symbol": "=", "pIC50": 7.37}

---

Hi, quick share: literature pIC50 data for Serine/threonine-protein kinase PLK1 (Homo sapiens, UniProt P53350), several sources combined.
pIC50: −log10 of the molar value.

{"Molecule": "COc1cc(C(=O)NC2CCN(C)CC2)ccc1Nc1ncc2c(n1)N(C1CCCC1)C[C@H](C)C(=O)N2C", "pIC50": "> 6.30"}
{"Molecule": "CC[C@@H]1C(=O)N(C)c2cnc(Nc3ccc(/C=C/CCCC(=O)N[C@@H](CC(C)C)C(=O)OC4CCCC4)cc3F)nc2N1C1CCCC1", "pIC50": "6.30 to 7.00"}
{"Molecule": "COc1cc2ncn(-c3nc(-c4cccc(Cl)c4)c(C(=O)NNC(=O)c4cccc(C)c4)s3)c2cc1OC", "pIC50": 6.23}
{"Molecule": "COc1cc(C(=O)NN)ccc1Nc1ncc2c(n1)N(C1CCCC1)CC(C)C(=O)N2C (racemic)", "pIC50": "> 6.30"}
{"Molecule": "CN(C)CCN(C)C(=O)c1ccc(-c2c(F)cnc3[nH]c4cnc(-c5cccnc5)cc4c23)cc1", "pIC50": "6.00 to 7.00"}
{"Molecule": "COc1ncc2sc3c(c2n1)SCCNC3=O", "pIC50": "< 4.00"}
{"Molecule": "CC(=O)Nc1cccc(-c2ccnc(Nc3ccc(O)cc3)n2)c1", "pIC50": 5.16}
{"Molecule": "CN1CCC(N(C)C(=O)c2ccc(-c3c(F)cnc4[nH]c5cnc(-c6cccnc6)cc5c34)cc2)CC1", "pIC50": "6.00 to 7.00"}
{"Molecule": "O=C(NCCCN1CCCC1=O)c1ccc(-c2c(F)cnc3[nH]c4cnc(-c5cccnc5)cc4c23)cc1", "pIC50": "6.00 to 7.00"}
{"Molecule": "O=C(NCCN1CCCCCC1)c1ccc(-c2c(F)cnc3[nH]c4cnc(-c5cccnc5)cc4c23)cc1", "pIC50": "6.00 to 7.00"}
{"Molecule": "CC(CN(C)C)NC(=O)c1ccc(-c2c(F)cnc3[nH]c4cnc(-c5cccnc5)cc4c23)cc1 (stereo not shown)", "pIC50": "5.30 to 6.00"}
{"Molecule": "CC[C@@H]1C(=O)N(C)c2cnc(-c3cn[nH]c3-c3ccccc3)nc2N1C1CCCC1", "pIC50": "> 6.00"}
{"Molecule": "NC(=O)c1sc(-n2cnc3ccc(OCCCN4CCCC4)cc32)nc1-c1cccc(Cl)c1", "pIC50": 7.30}
{"Molecule": "CCN(CC)CCCn1cc(-c2cnc3[nH]c4cnc(-c5cccnc5)cc4c3c2)cn1", "pIC50": "5.30 to 6.00"}
{"Molecule": "CCC12COCCN1c1nc(-n3ccnc3-c3ccccc3)ncc1N(C)C2=O (racemic)", "pIC50": "4.30 to 5.00"}
{"Molecule": "CC[C@@H]1C(=O)N(C)c2cnc(-c3scnc3-c3ccc(F)cc3)nc2N1C(C)C", "pIC50": "5.00 to 6.00"}

---

Hi, quick share: literature IC50 data for Serine/threonine-protein kinase PLK1 (Homo sapiens, UniProt P53350), several sources combined.
Measured attribute: IC50 (µM)

{"Smiles string": "O=C1Nc2ccc(Br)cc2/C1=C\\c1ccc2[nH]ncc2c1", "Experimental system": "Serine/threonine-protein kinase PLK1 (Homo sapiens, UniProt P53350)", "Measured attribute": "IC50", "Qualifier symbol": ">", "Value measured": 50}
{"Smiles string": "COc1cc(C(=O)NC2CCOCC2)ccc1Nc1ncc2c(n1)N(C1CCCCC1)CCC(=O)N2", "Experimental system": "Serine/threonine-protein kinase PLK1 (Homo sapiens, UniProt P53350)", "Measured attribute": "IC50", "Qualifier symbol": ">", "Value measured": 5}
{"Smiles string": "CN1CCC(C(=O)NC2CCN(Cc3ccc4ncn(-c5nc(-c6cccc(Cl)c6)c(C(N)=O)s5)c4c3)CC2)CC1", "Experimental system": "Serine/threonine-protein kinase PLK1 (Homo sapiens, UniProt P53350)", "Measured attribute": "IC50", "Qualifier symbol": "=", "Value measured": 1.48}
{"Smiles string": "COc1cc2ncn(-c3nc(-c4cccc(Cl)c4)c(C(N)=O)s3)c2cc1OCCCN1CCN(C)CC1", "Experimental system": "Serine/threonine-protein kinase PLK1 (Homo sapiens, UniProt P53350)", "Measured attribute": "IC50", "Qualifier symbol": "=", "Value measured": 0.06}

---

Hi, quick share: literature pIC50 data for Serine/threonine-protein kinase PLK1 (Homo sapiens, UniProt P53350), several sources combined.
pIC50: −log10 of the molar value.
Measured attribute: pIC50

{"Compound": "c1cncc(-c2cc3c(cn2)[nH]c2ncc(-c4cn[nH]c4)cc23)c1", "Value measured": "5.30 to 6.00"}
{"Compound": "c1cncc(-c2cc3c(cn2)[nH]c2ncc(-c4cnn(CCN5CCOCC5)c4)cc23)c1", "Value measured": "5.30 to 6.00"}
{"Compound": "CC[C@@]12COCCN1c1nc(-n3ccnc3-c3ccc(F)cn3)ncc1N(C)C2=O", "Value measured": "< 4.30"}
{"Compound": "COc1cc(C(=O)NC2CCN(C)CC2)ccc1Nc1ncc2c(n1)N(C1CC1)C(C)C(C)C(=O)N2C (racemic)", "Value measured": "> 6.30"}
{"Compound": "COc1cc(C(=O)NC2CCN(C)CC2)ccc1Nc1ncc2c(n1)N(C1CCCCC1)CC(C)C(=O)N2 (racemic)", "Value measured": "5.30 to 6.30"}
{"Compound": "CCc1cccn2c(-c3nc(N[C@@H](C)c4ccc(C(O)[C@@H]5CCCN(C)C5)cc4)ncc3C#N)cnc12 (single isomer, unassigned)", "Value measured": 8.85}
{"Compound": "CN1CC2CCN(C(=O)c3ccc(-c4c(F)cnc5[nH]c6cnc(-c7cccnc7)cc6c45)cc3)CC2C1 (centres unmarked)", "Value measured": "6.00 to 7.00"}
{"Compound": "CCc1cccn2c(-c3nc(N[C@@H](C)c4ccc([C@H](O)CNC(C)(C)C)cc4)ncc3C#N)cnc12", "Value measured": 8.64}
{"Compound": "CC[C@@H]1C(=O)N(C)c2cnc(-n3ccnc3-c3cncnc3)nc2N1C(C)C", "Value measured": "4.30 to 5.00"}
{"Compound": "CC1CN(C2CCCC2)c2nc(Nc3ccc(C(=O)NC4CCN(C)CC4)c(Cl)c3)ncc2N(C)C1=O (racemic)", "Value measured": "> 6.30"}
{"Compound": "COc1cc2ncn(-c3nc(-c4cccc(F)c4F)c(C(=O)O)s3)c2cc1OC", "Value measured": 6.27}
{"Compound": "Fc1cnc2[nH]c3cnc(-c4cccnc4)cc3c2c1-c1ccc(OCCN2CCCC2)cc1", "Value measured": "7.00 to 9.00"}
{"Compound": "Cc1cc(C(=O)c2c[nH]c3nccc(-c4cccc(N)c4)c23)n(C)n1", "Value measured": "≥ 5.00"}
{"Compound": "O=C(NCCCN1CCOCC1)c1ccc(-c2c(F)cnc3[nH]c4cnc(-c5cccnc5)cc4c23)cc1", "Value measured": "6.00 to 7.00"}
{"Compound": "COc1ccc2c(c1)ncn2-c1nc(-c2ccccc2)c(C(=O)O)s1", "Value measured": 6.58}
{"Compound": "CN1CCN(CCCOc2ccc3ncn(-c4nc(-c5cccc(Cl)c5)c(C(N)=O)s4)c3c2)CC1", "Value measured": 7.49}
{"Compound": "CCC1C(=O)N(C)c2cnc(-c3cn[nH]c3-c3nccs3)nc2N1c1cnn(CC2CC2)c1 (centres unmarked)", "Value measured": "5.00 to 6.00"}
{"Compound": "CCN(CC)C(=O)c1cccc(-c2cnc3[nH]c4cnc(-c5cccnc5)cc4c3c2)c1", "Value measured": "6.00 to 7.00"}
{"Compound": "COc1cc(C(=O)NC2CCN(C)CC2)ccc1Nc1ncc2c(n1)N(Cc1ccccc1)CC(C)C(=O)N2C (racemic)", "Value measured": "5.30 to 6.30"}
{"Compound": "CCC12CN(C)CCN1c1nc(-n3ccnc3-c3ccccc3)ncc1N(C)C2=O (racemic)", "Value measured": "< 4.30"}
{"Compound": "COc1cc2ncn(-c3nc(-c4cccc(Br)c4)c(C(=O)O)s3)c2cc1OC", "Value measured": 7.40}
{"Compound": "C[C@H](Nc1ncc(F)c(-c2cnc3c(Cl)cccn23)n1)c1ccc([C@H](O)CNC(C)(C)C)cc1", "Value measured": 8.59}
{"Compound": "CC[C@@H]1C(=O)N(C)c2cnc(-n3cnc(C(=O)N4CCOCC4)c3)nc2N1C1CCCC1", "Value measured": "5.00 to 6.00"}
{"Compound": "CC[C@@H]1C(=O)N(C)c2cnc(-c3ccnc(O)c3)nc2N1C1CCCC1", "Value measured": "> 6.00"}
{"Compound": "Cc1occc1Sc1c[nH]c2ncccc12", "Value measured": "≥ 5.00"}
{"Compound": "CC[C@@H]1C(=O)N(C)c2cnc(-c3cnncc3-c3ccccc3)nc2N1C1CCCC1", "Value measured": "> 6.00"}
{"Compound": "CC[C@]12COCCN1c1nc(-c3cn[nH]c3-c3nccs3)ncc1N(C)C2=O", "Value measured": "< 4.30"}
{"Compound": "CC(=O)Nc1ccc2c(c1)NC(=O)/C2=C/c1ccc2cn[nH]c2c1", "Value measured": "4.30 to 5.30"}
{"Compound": "CC[C@]12COCCN1c1nc(-c3snnc3-c3ccccc3)ncc1N(C)C2=O", "Value measured": "< 4.30"}
{"Compound": "CC[C@]12COCCN1c1nc(-c3snnc3-c3ccc(F)cn3)ncc1N(C)C2=O", "Value measured": "< 4.30"}
{"Compound": "O=C1Nc2ccc(Br)cc2/C1=C\\c1ccc2[nH]nnc2c1", "Value measured": "4.30 to 5.30"}
{"Compound": "COc1cc(C(=O)NC2CCN(C)CC2)ccc1Nc1ncc2c(n1)N(C1CCCCC1)CCC(=O)N2", "Value measured": "5.30 to 6.30"}
